The measurements presented in this section are drawn from ChEMBL document CHEMBL1764980.

assay.explanation: Aqueous solubility of the compound in 0.2 M phosphate buffer at pH 7.4 after 4 hrs by HPLC analysis
Type: physicochemical
Reported solubility at 4 h by item:

Some solved cases for reference:
chemical.smiles | solubility at 4 h
COc1ccc2c(c1)c(CC(=O)OCc1oc(=O)oc1C)c(C)n2C(=O)c1ccc(Cl)cc1 | < 0.0638 µg/mL
COc1ccc2c(c1)c(CC(=O)OCCOC(C)=O)c(C)n2C(=O)c1ccc(Cl)cc1 | < 0.111 µg/mL
COc1ccc2c(c1)c(CC(=O)OCOC(=O)OC(C)C)c(C)n2C(=O)c1ccc(Cl)cc1 | < 0.119 µg/mL

Attention now shifts to the item below.
Request: For COc1ccc2c(c1)c(CC(=O)OCOC(=O)C(C)(C)C)c(C)n2C(=O)c1ccc(Cl)cc1 , what is its reported solubility at 4 h?
Response: < 0.084 µg/mL
